Values from patent US20130251703A1

Biological target: T1, Hu HER3: CD33-[Human HER3, residues 20-640]-TAG (human, UniProt P21860 20-640)
T1 construct: also called hu HER3-Tag; HER3-Tag; not shown: C-terminal TAG (e.g. FLAG TAG)
Test: solution equilibrium titration (SET), IgG, ECL read-out
Listed below: Kd values for each entry.
Your answer is read as nM, so omit the unit and give the number.

MOR14538 (antibody, human IgG1, lambda, V domains shown, Tested as IgG) VH: QVQLVQSGAEVKKPGASVKVSCKASGYTFTSYDIHWVRQAPGQGLEWMGRIDPYSGNTNYAQKFQGRVTMTRDTSISTAYMELSRLRSDDTAVYYCARGSFYTRDSYFDVWGQGTLVTVSS VL: QSALTQPASVSGSPGQSITISCTGTSSDVGTYNQVSWYQQHPGKAPKLMIYGVSKRPSGVSNRFSGSKSGNTASLTISGLQAEDEADYYCASADHSYHTVFGGGTKLTVLG: 0.045

Turning now to a further binder:
Asked: Dear colleague, I am looking for the recorded Kd of the following binder: MOR14534 (antibody, human IgG1, kappa, V domains shown, Tested as IgG) VH: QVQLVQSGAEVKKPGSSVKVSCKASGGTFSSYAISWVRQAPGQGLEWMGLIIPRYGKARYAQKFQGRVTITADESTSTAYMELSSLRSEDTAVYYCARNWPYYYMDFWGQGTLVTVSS VL: EIVLTQSPATLSLSPGERATLSCRASQNIVFNLAWYQQKPGQAPRLLIYDASNRATGIPARFSGSGSGTDFTLTISSLEPEDFAVYYCQQTKNRPPTFGQGTKVEIKR
Given back: 2.15
